# Test system: Hek293T
# Measurement notes: Primary qHTS to identify gynecologic anti-cancer compounds using libraries of approved drugs and bioactive compounds (AID 1345084); further: potency means the concentration at half of the fitted maximal effect; nearly all actives have a fitted effect of over 55% in size
# Setup conditions: Gynecologic cancer cell panel viability, ATPlite luminescence, 48 h, control line for the selectivity index; series mostly up to 57.5 µM
# Text: National Center for Advancing Translational Sciences [NCATS] Assay Overview: Chemotherapeutic drug responses vary from cancer to cancer and from patient to patient. […] ATPlite is a luminescence based assay reliant on the conversion of a luciferase substrate to light in the presence of ATP. As a cytotoxic compound will suppress growth and decrease the number of cells, the concentration of ATP will decrease, and less light signal will be detected in the well. […]
Results filed as inconclusive are left out. Calls of active or inactive are those of the source. The call rests on the fitted dose curve; in most records, active means well fitted cell-killing curve with a large enough effect; inconclusive means small, poorly fitted or top-dose-only effect, or effect the other way; inactive means flat fitted curve, though single readings scatter.
Measured metric: Potency

Sample answers from the record:
COC1C(O)C(C)OC(OC2C(CO)O[C@@H](O[C@@H]3CC4CCC5C(CC[C@]6(C)[C@@H](C7=CC(=O)OC7)CC[C@]56O)[C@@]4(C)[C@H](O)C3)C(O)C2O)C1O (some centres undefined) :: 2820 nM (active)
COC1CC(OC2CCC3(C)C(CCC4C3CCC3(C)C(C5=CC(=O)OC5)C(OC(C)=O)CC43O)C2)OC(C)C1OC1OC(CO)C(O)C(O)C1O (centres undefined) :: 3160 nM (active)
COC1C(O)C(OC2CCC3(C=O)C(CCC4C3CCC3(C)C(C5=CC(=O)OC5)CCC43O)C2)OC(C)C1OC1OC(CO)C(O)C(O)C1O (centres undefined) :: 1000 nM (active)

Pending molecule:
Consider CC12CCC3C(CCC4(O)CC(O)CCC34C=O)C1(O)CCC2C1=CC(=O)OC1 (centres undefined) . Its measured Potency is 1260 nM (active)

---

# Tested on: N140
# Measurement notes: qHTS profiling for inhibitors of Plasmodium falciparum proliferation (AID 504749); further: nearly all actives have a fitted effect of over 60% in size
# Setup conditions: P. falciparum in erythrocytes, SYBR Green DNA, 72 h; series mostly up to 28.7 µM
Records with an inconclusive call do not appear. Calls of active or inactive are those of the source. Calls follow the shape of the dose curve; as a rule, active = well fitted inhibition curve with a large enough effect; inconclusive = small, poorly fitted or top-dose-only effect; inactive = flat fitted curve, though single readings scatter.
Would you mind answering with one of these outcomes? Yes (active), No (inactive)

Check out these entries, answers already filled in.
ClCC1CO1 (stereo unspecified) :: No
O=C/C=C/c1ccccc1 :: No
O[C@H]1[C@H]2[C@H](O)CCCN2C[C@H]1O :: No
N#CN :: No

Entry C=CCN1CCC23c4c5ccc(O)c4O[C@H]2C(=O)CC[C@@]3(O)C1C5 (stereo partly specified) : call = ?
No

Entry O=C1CN(O)C(c2ccccc2)=c2cc(Cl)ccc2=N1 : call = ?
No

Entry CCCCCCCCCC(=O)O[C@H]1CC[C@H]2[C@@H]3CCC4=CC(=O)CC[C@]4(C)[C@H]3CC[C@]12C : call = ?
No

Entry Cn1sc(Cl)cc1=O : call = ?
No

---

The following molecules are listed with their measured Z-AUC values.
# Measurement notes: qHTS drug screen for cell cycle checkpoint inhibitors in PARPi-resistant BRCA-mutant ovarian cancer cell lines. (AID 1963452)
# Setup conditions: PEO1/OlaR viability, CellTiter-Glo luminescence, 96 h; measured here: PEO4 Z-AUC; stronger effect = lower value
Output: the number by itself.

COc1cc(C)[nH]c(=O)c1CNC(=O)c1c(C)n([C@H](C)C2CCOCC2)c2ccccc12 :: 0.135
C/C(O)=C(\C#N)C(=O)Nc1cc(Br)ccc1Br :: 0.627
CCOc1ccccc1-n1c(C(C)N2CCN(C(=O)COc3ccc(Cl)cc3)CC2)nc2ccccc2c1=O (stereo not given) :: -0.0275
CC(=O)c1c(O)c(C)c(O)c(Cc2c(O)c3c(c(C(=O)/C=C/c4ccccc4)c2O)OC(C)(C)C=C3)c1O :: 0.636

Pending molecule:
Consider C=C[C@H]1CN2CC[C@H]1C[C@@H]2[C@@H](O)c1ccnc2ccccc12 . Its measured Z-AUC is 1.06

---

# Test system: Tyrosine-protein phosphatase non-receptor type substrate 1 (Homo sapiens) + Leukocyte surface antigen CD47 (Homo sapiens) (UniProt P78324+Q08722)
# Sequence (P78324 whole entry, looked up): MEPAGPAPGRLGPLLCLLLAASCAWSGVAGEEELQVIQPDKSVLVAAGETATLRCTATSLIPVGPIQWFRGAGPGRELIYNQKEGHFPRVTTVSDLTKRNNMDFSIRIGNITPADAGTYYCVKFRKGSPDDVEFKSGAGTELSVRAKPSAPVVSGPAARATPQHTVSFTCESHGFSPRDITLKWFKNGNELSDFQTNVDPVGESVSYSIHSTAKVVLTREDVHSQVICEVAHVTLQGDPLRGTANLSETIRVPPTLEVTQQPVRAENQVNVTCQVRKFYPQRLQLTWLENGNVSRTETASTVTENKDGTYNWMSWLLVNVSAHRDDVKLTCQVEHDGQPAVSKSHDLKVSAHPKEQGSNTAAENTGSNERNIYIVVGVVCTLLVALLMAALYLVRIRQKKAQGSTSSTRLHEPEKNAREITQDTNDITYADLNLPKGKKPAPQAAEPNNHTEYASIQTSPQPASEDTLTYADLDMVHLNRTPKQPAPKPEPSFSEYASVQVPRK
# Sequence (Q08722 whole entry, looked up): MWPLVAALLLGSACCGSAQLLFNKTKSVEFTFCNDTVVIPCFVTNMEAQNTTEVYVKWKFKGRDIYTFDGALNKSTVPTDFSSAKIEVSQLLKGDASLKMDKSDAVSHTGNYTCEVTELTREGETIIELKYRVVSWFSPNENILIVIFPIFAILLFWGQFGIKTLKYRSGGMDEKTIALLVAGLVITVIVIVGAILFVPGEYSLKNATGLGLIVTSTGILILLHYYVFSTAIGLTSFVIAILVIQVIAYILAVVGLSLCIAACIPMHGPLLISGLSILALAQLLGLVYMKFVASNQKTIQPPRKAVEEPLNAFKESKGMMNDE
# Measurement notes: CD47-SIRPalpha protein protein interaction - LANCE assay qHTS validation (AID 1347057)
# Setup conditions: Recombinant CD47-His / biotin-SIRPalpha, TR-FRET ratio; series mostly up to 38.3 µM
Results filed as inconclusive are left out. Activity calls are given as the source filed them. Calls come from the whole dose curve; as a rule, active = well fitted curve in the direction sought with a large enough effect in the signal ratio, with a control signal flat (not every such curve was filed as active); inconclusive = small, poorly fitted or top-dose-only effect, or effect the other way, or a change in a side signal; inactive = no such curve, though single readings can be large or run the other way; the % refers to the signal ratio.
Would you mind answering with one of these outcomes? yes (1) (active), no (0) (inactive)

Check out these entries, answers already filled in.
CC(=O)NBr :: no (0)
CCCN(CCC)C1CCc2cccc(O)c2C1 (stereo not drawn) :: no (0)

Please turn your attention to the following entry.
Entry CN(N=O)c1ccc(O)c(O)c1 : call = ?
yes (1)

---

The following molecules are listed with their measured Potency values.
# Test system: Es-2
# Measurement notes: Primary qHTS to identify gynecologic anti-cancer compounds using libraries of approved drugs and bioactive compounds (AID 1345084); further: potency means the concentration at half of the fitted maximal effect; nearly all actives have a fitted effect of over 55% in size
# Setup conditions: Gynecologic cancer cell panel viability, ATPlite luminescence, 48 h; series mostly up to 57.5 µM
Inconclusive results are not listed. Active and inactive are the calls of the source. Calls come from the whole dose curve; as a rule, active = well fitted cell-killing curve with a large enough effect; inconclusive = small, poorly fitted or top-dose-only effect, or effect the other way; inactive = flat fitted curve, though single readings scatter.

Sample answers from the record:
CCOc1ccccc1-n1c(C(C)N2CCN(C(=O)COc3ccc(Cl)cc3)CC2)nc2ccccc2c1=O (centres undefined) :: 3980 nM (active)
CO[C@H]1[C@H](O)[C@H](O[C@H]2CC[C@]3(C)C4CC[C@]5(C)[C@H](C6=CC(=O)OC6)CC[C@]5(O)C4CC[C@@H]3C2)O[C@@H](C)[C@@H]1O (some centres undefined) :: 79.4 nM (active)
C[C@H]1O[C@@H](O[C@H]2C[C@@H](O)[C@]3(CO)C4C(CC[C@]3(O)C2)[C@@]2(O)CC[C@H](C3=CC(=O)OC3)[C@@]2(C)C[C@H]4O)[C@@H](O)[C@@H](O)[C@H]1O (some centres undefined) :: 355 nM (active)

Pending molecule:
# COC1CC(OC2CCC3(C=O)C(CCC4C3CCC3(C)C(C5=CC(=O)OC5)CCC43O)C2)OC(C)C1OC1OC(CO)C(O)C(O)C1O (centres undefined) with Es-2: Potency is 355 nM (active)

---

# Tested on: CP315
# Measurement notes: qHTS profiling for inhibitors of Plasmodium falciparum proliferation (AID 504749); further: nearly all actives have a fitted effect of over 60% in size
# Setup conditions: P. falciparum in erythrocytes, SYBR Green DNA, 72 h; series mostly up to 28.7 µM
# Description: NIH National Institute of Allergy and Infectious Diseases [NIAID] NIH Chemical Genomics Center [NCGC] […] Because mature erythrocytes lack DNA, only Plasmodium-derived DNA is detected. NCGC Assay Protocol Summary: The SYBR Green viability assay was adapted from a method described previously (Plouffe et al., 2008). […] The following morning, fluorescence intensity at 485(14) nm excitation and 535(25) nm emission wavelengths was measured on an EnVision (Perkin Elmer) plate reader. […]
Records with an inconclusive call do not appear. Active and inactive are the calls of the source. The call rests on the fitted dose curve; in most records, active means well fitted inhibition curve with a large enough effect; inconclusive means small, poorly fitted or top-dose-only effect; inactive means flat fitted curve, though single readings scatter.
Would you mind answering with one of these outcomes? TRUE for active, FALSE for inactive

Check out these entries, answers already filled in.
C[C@H]1CC[C@@H]2[C@@H](C)[C@H]3[C@H](C[C@H]4[C@@H]5CC=C6CC(O[C@@H]7O[C@H](CO)[C@H](O)[C@H](O[C@@H]8O[C@H](CO)[C@@H](O)[C@H](O)[C@H]8O)[C@H]7O[C@H]7O[C@@H](C)[C@H](O)[C@@H](O)[C@H]7O)CC[C@]6(C)[C@H]5CC[C@]34C)N2C1 (stereo not given in full) :: FALSE
CNC(C)C(O)c1ccc(O)cc1 (stereo not given) :: FALSE
C/C(=C\c1csc(C)n1)[C@@H]1C[C@@H]2O[C@]2(C)CCC[C@H](C)[C@H](O)[C@@H](C)C(=O)C(C)(C)[C@@H](O)CC(=O)O1 :: TRUE
CCC1(c2ccccc2)C(=O)NC(=O)N(C)C1=O (stereo not given) :: FALSE

Please turn your attention to the following entry.
Entry C[CH2][Hg][S]c1ccccc1C(=O)O : call = ?
TRUE

---

# Measurement notes: Drug repurposing screens with cells derived from glioblastoma tumor samples (AID 1345199); further: on the % scale 0 is the no-effect control and ±100 the full control effect; nearly all actives have a fitted effect of over 40% in size
# Setup conditions: GBM patient neurospheres viability, ATP luminescence, 48 h; at 46.1 µM (top of the series); tumour line C
Records with an inconclusive call do not appear.
Measured metric: activity, negative = cell killing (%)
Just the number please, in %, no unit attached.

Sample answers from the record:
ClCC1CO1 (stereo not drawn) :: -16.2
Clc1ccc(Cl)cc1 :: -0.658

Pending molecule:
Consider CC(C)CCON=O . Its measured activity, negative = cell killing is 2.53

---

# Test system: PC26
# Measurement notes: qHTS profiling for inhibitors of Plasmodium falciparum proliferation (AID 504749); further: nearly all actives have a fitted effect of over 60% in size
# Setup conditions: P. falciparum in erythrocytes, SYBR Green DNA, 72 h; series mostly up to 28.7 µM
Inconclusive results are not listed. Active and inactive are the calls of the source. Calls come from the whole dose curve; as a rule, active = well fitted inhibition curve with a large enough effect; inconclusive = small, poorly fitted or top-dose-only effect; inactive = flat fitted curve, though single readings scatter.
Would you mind answering with one of these outcomes? True (active), False (inactive)

Check out these entries, answers already filled in.
O=c1[nH]c(=O)n(Cl)c(=O)n1Cl :: False
c1csc(C2(N3CCCCC3)CCCCC2)c1 :: False
CCCCCCCCCC(=O)O[C@H]1CC[C@H]2[C@@H]3CCC4=CC(=O)CC[C@]4(C)[C@H]3CC[C@]12C :: False
C/C(=C\c1csc(C)n1)[C@@H]1C[C@@H]2O[C@]2(C)CCC[C@H](C)[C@H](O)[C@@H](C)C(=O)C(C)(C)[C@@H](O)CC(=O)O1 :: True
O=C(OCCN1CCCCC1)C(O)(c1ccccc1)c1ccccc1 :: False
C[CH2][Hg][S]c1ccccc1C(=O)O :: True
O=P(O)(O)C(Cl)(Cl)P(=O)(O)O :: False
S=C(S)N1CCNCC1 :: False
C=CCN1CCC23c4c5ccc(O)c4O[C@H]2C(=O)CC[C@@]3(O)C1C5 (stereo not given in full) :: False

Please turn your attention to the following entry.
Entry Cn1sc(Cl)cc1=O : call = ?
False
